test: label from the status in PepcDB records

residueSequence	protein production
MLKVFAMEMKDAKLYGGIGAILQLVGPFVPSIGFILALVGLVLVFLAVKTISEKSGDEGIFNNYLKAFIAQILGIIIFVGIIVATIGTAILKGGMGKLANPMEFMSLIGTILLGFIILWIFYTVAGYFKKKSYENSQYTGTDMFKTAGLLFFIGAILIILGIGVLIILIAEILEIVAFFSLPETSESAPVSA	failed
PDIGTFTVRPLDPTRDAELLHGWVTHPKSAFWMMQEARLHDVEREYMAIAASEYHDAFLGLLDDEPVFLMEKYDPAHVELVGLYEPEPGDVGMHFLVAPTDTPVHGFTRAVITAVMEHLFADPATRRVVVEPDVGNKAVHALNEAVG	failed

----------
test: label from the status in PepcDB records

residueSequence	protein production
LGTLFFSLEYNFERKAFVVNIKEARGLPAMDEQSMTSDPYIKMTILPEKKHKVKTRVLRKTLDPAFDETFTFYGIPYTQIQELALHFTILSFDRFSRDDIIGEVLIPLSGIELSEGKMLMNREII	not failed
MKYLAGIVTFNPNIERLDQNIRAIYPQVSHIYIVDNGSKNKEEISQLVADYNEEGHLTVDYLTENKGIAYALNCIGQFAVAQEFDWFLTLDQDSVVLGDLIDNYENYLHLPKVGMLSCLYQDMNRENLVMQEFDYKEIEECITSAALMKTSVFEETSGFAEEMFIDFVDSEMNYRLSEMGYKTYQVNFIGLLHEIGHSSRVKKFGHVFHVLNHSPFRKYYMIRNAIYIIKKYGKKKRYKYLVFMRNEFVRVLVAEEQKSKKIVAMIKGLKDGLLMKVDKYGKLEHHHHHH	not failed

----------
test: label from the status in PepcDB records
resultType: protein production

// solved cases for protein production follow
residueSequence	measValue
PEEQRQKLPDITAADPLEYKKQLLKLAISRIVFMRRFIADSLYYLPDVFFVTDKDNNIILLNKAAENLTAELGAQYHYRMPISTILNHLHNEEGHRINFDQVRNNEINSQCYAENGRAFDLRIAACRQVINQPDGWLIMLIDISAVKSAEEQRQRILHLLSHDMRSPQISILALIDRFSRTSC	failed
MQNMFDGVQLFVEVVEAGGFAKAGKRLSLTRSTIGKAIARLEMRLGVQLFQRTTRVQSLTEDGQQYYERCLRAIKELRAGEAMLEQGRREVAGRLHVSLPVLFGRQCVAPILRTYAREHPQLELELNFSDHHVDLIADGFDLAVRNGPLGNGTTLRARRLGNQRKILCASPTYLAARGKPHTLADLADHDLLTYCRNDRNMAWTLPDATGALVDIPITSRLRCNDLEVIADTAVDGMGVAWLPYWLLMERMQRGELIGIWGDRPSAVIECHVVWPAAQHVPLRSRLAINLLAAELPKYLEA	failed
MIDLRSDTVTKPTEEMRKAMAQAEVGDDVYGEDPTINELERLAAETFGKEAALFVPSGTMGNQVSIMAHTQRGDEVILEADSHIFWYEVGAMAVLSGVMPHPVPGKNGAMDPDDVRKAIRPRNIHFPRTSLIAIENTHNRSGGRVVPLENIKEICTIAKEHGINVHIDGARIFNASIASGVPVKEYAGYADSVMFCLSKGLCAPVGSVVVGDRDFIERARKARKMLGGGMRQAGVLAAAGIIALTKMVDRLKEDHENARFLALKLKEIGYSVNPEDVKTNMVILRTDNLKVNAHGFIEALRNSGVLANAVSDTEIRLVTHKDVSRNDIEEALNIFEKLFRKFS	not failed
MTWSHWEITPFITSVFFILGVLTLFWVSQNWIINFFNTHHWRVDQSLITDWYGLIYMMLFVFGMQTAVVGQNDAWIFMNFQLIGLTFCGYFLNVRVRYYYLYPLVFIFMGFNHSLYYWESWGHAVTLILFFTALGRLRKHVPLQTKQGQVTLYLVTCAGFGAVLWWFMKLKFNLSWATYWQEWTYLLVFASLLYIYASMLSANAHLKQNLVAFANHDALTKIENFAAYKTAINYQVTSSRKNGSQLTMLMFDIDHFKQVNDTYGHLAGDKILQHVAQVATIVFHANNPQISLYRTGGEEFNVIFPNYDLTEALAVAEQLFAAINHIAVPVNDHQIQLSISIGLSELAADDQSPTAFYQRVDANLYHSKKHGRMQITAK	failed
MKQLLLGRNALFGLLGAIAVLTVVPVATIMPAYAVDDIEGADAPDLTAVQAKIAAKDYKGALAELRDLAQDNQQADVYNLLGFTLRKTGDVTTALTYYNKALELKPDHKAAREYLGELYVETGDMNKAKEQLASLQKLCPAGCEELSDLQKAIDTKVTQ	failed
MKRSSPVILVSEDEYGKFDESTNSILVKGKMHHLGISRVIEPGDELIVSGKSFIVSDFSPMYFGRVIRRNTQIISEIDASYIIMRCGLRPGMDILEVGVGSGNMSSYILYALNGKGTLTVVERDEDNLKKAMDNLSEFYDIGNVRTSRSDIADFISDQMYDAVIADIPDPWNHVQKIASMMKPGSVATFYLPNFDQSEKTVLSLSASGMHHLETVELMKRRILVREGATRPASDDLTHTAFITFAIKKSGMVYRI	not failed
EVILGDGIFPLTALAVGKDDRAFAVIRTAGGQAPHPDVDFPELSSTGLLLSSLKPADRALLPEGTPDREVSIDLGGQMMPYEWRILTDGQSSSATVQEGQRLRMVMRNRTMMPHPMHIHGHTWALPGSGGLRKDTVLLRHGETMIADLIADNPGEWAFHCHNAYHMETGMLSSLRYE	failed
GSSGSSGMTPLVKDIIMSSTRMPALFLGHGSPMNVLEDNLYTRSWQKLGMTLPRPQAIVVVSAHWFTRGTGVTAMETPPTIHDFGGFPQALYDTHYPAPGSPALAQRLVELLAPIPVTLDKEAWGFDHGSWGVLIKMYPDADIPMVQLSIDSSKPAAWHFEMGRKLAALRDEGIMLVASGNVVHNLRTVKWHGDSSPYPWATSFNEYVKANLTWQGPVEQHPLVNYLDHEGGTLSNPTPEHYLPLLYVLGAWDGQEPITIPVEGIEMGSLSMLSVQIG	not failed

Prompt: Please report the measured protein production for MLRPAGLWRLCRRPWAARVPAENLGRREVTSGVSPRGSTSPRTLNIFDRDLKRKQKNWAARQPEPTKFDYLKEEVGSRIADRVYDIPRNFPLALDLGCGRGYIAQYLNKETIGKFFQAAIAENALKNSSETEIPTVSVLADEEFLPFKENTFDLVVSSLSLHWVNDLPRALEQIHYILKPDGVFIGAMFGGDTLYELRCSLQLAETEREGGFSPHISPFTAVNDLGHLLGRAGFNTLTVDTDEIQVNYPGMFELMEDLQGMGESNCAWNRKALLHRDTMLAAAAVYREMYRNEDGSVPATYQIYYMIGWKYHESQARPAERGSATVSFGELGKINNLMPPGKKSQ
Response: failed

Prompt: Please report the measured protein production for MAAPLIPVLTAPTAAGKTALALRLAREYGLEIVAADAFTVYRGLDLGTAKPTPQERASVPHHLLDVVDVTQSYDVAQYAAQAEAAIVDILARGRLPLVVGGTGFYLSALSRGLPLTPPSDPKMRAALEAELQERGLDALLAEIEQANPAEAARMERNPRRVVRALEVYRAAGRFPGEFGYSPPAFQYQVFAFSPPAAEMEQRVQERTAAMLRAGWPQEAQWLAGQVPPEQEPRPTVWQALGYAEALAVAQGRLSLAGAEQAIALATRQYGKRQLTWMRRQLGAEVQSPDAAEAHLRAFLERSGAPSLEHHHHHH
Response: failed

Prompt: Please report the measured protein production for MHLKEKITTIIQGQRTGVLSTVRNDKPHSAFMMFFHEDFVLYVATDRQSKKITDIENNPNVHVLLGREGKKLDEDYIEVEGLASIEEDSTLKNKFWNNSLKRWLLRPEDPNYVLIKINPDTIYYIDGAGTTEPEFLRL
Response: not failed
